target: T1, human CD3 expressed on cells (Jurkat cells; human T-cells of PBMC) (human, UniProt P09693 23-182; P20963 22-164); assay: FACS titration on Jurkat cells (CD3+ human T-cell line)
T1 construct: whole, on cells; Native CD3 on the cell surface; also called hPBMC
T1 sequence (chain, as listed by the source, chain 1 of 4): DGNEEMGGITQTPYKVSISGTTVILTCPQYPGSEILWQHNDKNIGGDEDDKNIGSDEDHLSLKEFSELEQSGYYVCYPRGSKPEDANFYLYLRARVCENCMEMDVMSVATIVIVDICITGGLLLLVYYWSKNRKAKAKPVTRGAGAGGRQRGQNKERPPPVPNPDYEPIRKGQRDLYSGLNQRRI
T1 sequence (chain, as listed by the source, chain 2 of 4): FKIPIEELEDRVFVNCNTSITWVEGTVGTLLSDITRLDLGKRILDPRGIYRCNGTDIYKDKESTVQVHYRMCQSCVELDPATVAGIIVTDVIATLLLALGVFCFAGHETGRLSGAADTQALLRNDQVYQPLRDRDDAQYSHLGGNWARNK
T1 sequence (P09693 23-182, chain 3 of 4): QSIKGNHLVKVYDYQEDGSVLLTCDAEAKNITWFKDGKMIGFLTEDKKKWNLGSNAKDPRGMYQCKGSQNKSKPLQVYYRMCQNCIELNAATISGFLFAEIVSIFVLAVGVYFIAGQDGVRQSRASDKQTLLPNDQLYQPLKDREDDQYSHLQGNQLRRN
T1 sequence (P20963 22-164, chain 4 of 4): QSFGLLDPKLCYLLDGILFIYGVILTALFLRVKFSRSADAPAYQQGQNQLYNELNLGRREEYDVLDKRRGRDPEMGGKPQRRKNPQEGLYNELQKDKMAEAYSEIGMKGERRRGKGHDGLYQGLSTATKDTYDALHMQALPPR
This listing pairs binders with measured pEC50.
Reminder that pEC50 is minus the log10 of a molar concentration.

H1H5801B (antibody, human IgG1, V domains shown, H1H: human IgG1 Fc) VH: QVQLVQSGGGVVQPGGSLRLSCAASGFTFDDYAMHWVRQAPGKGLEWVSLISGDGGSTYYADSVKGRFTISRDNSKNSLYLQMNSLRTEDTALYYCAKDDSSSSWYYYYYGMDVWGRGTTVTVSS VL: DIQMTQSPSSLSASVGDRVTITCRASQRISSYLNWYQQKPGKAPKVLISVASSLQSGVPSRFSGSGSGTDFTLTISSLQPEDFASYYCQQSYNTPLTFGGGTKVEIKR
7.81

Form field pEC50, entry H1H5790B (antibody, human IgG1, V domains shown, H1H: human IgG1 Fc) VH: EVQLVESGGGVVQPGRSLRLSCAASGFTFSYYGMHWVRQAPGKGLEWVAVISFDGKNKYYADSVMGRFTISRDNSKNTLYLQMNSLRAEDSAVFFCARSYDILTGYGAGYSYHYGMDVWGQGTTVTVSS VL: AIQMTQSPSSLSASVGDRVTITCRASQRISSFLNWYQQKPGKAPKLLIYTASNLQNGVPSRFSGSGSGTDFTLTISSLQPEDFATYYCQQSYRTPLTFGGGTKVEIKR : 8.45
